These measurements were taken from patent US8415376B2.

- test-target: PI3Kα (Homo sapiens)
- Construct: Full length p110 subunits of PI3K α, β and δ, N-terminally labeled with polyHis tag; polyHis (N); made in house; host or cells: Sf9 insect cells (baculovirus)
- Sequence (P42336 whole entry): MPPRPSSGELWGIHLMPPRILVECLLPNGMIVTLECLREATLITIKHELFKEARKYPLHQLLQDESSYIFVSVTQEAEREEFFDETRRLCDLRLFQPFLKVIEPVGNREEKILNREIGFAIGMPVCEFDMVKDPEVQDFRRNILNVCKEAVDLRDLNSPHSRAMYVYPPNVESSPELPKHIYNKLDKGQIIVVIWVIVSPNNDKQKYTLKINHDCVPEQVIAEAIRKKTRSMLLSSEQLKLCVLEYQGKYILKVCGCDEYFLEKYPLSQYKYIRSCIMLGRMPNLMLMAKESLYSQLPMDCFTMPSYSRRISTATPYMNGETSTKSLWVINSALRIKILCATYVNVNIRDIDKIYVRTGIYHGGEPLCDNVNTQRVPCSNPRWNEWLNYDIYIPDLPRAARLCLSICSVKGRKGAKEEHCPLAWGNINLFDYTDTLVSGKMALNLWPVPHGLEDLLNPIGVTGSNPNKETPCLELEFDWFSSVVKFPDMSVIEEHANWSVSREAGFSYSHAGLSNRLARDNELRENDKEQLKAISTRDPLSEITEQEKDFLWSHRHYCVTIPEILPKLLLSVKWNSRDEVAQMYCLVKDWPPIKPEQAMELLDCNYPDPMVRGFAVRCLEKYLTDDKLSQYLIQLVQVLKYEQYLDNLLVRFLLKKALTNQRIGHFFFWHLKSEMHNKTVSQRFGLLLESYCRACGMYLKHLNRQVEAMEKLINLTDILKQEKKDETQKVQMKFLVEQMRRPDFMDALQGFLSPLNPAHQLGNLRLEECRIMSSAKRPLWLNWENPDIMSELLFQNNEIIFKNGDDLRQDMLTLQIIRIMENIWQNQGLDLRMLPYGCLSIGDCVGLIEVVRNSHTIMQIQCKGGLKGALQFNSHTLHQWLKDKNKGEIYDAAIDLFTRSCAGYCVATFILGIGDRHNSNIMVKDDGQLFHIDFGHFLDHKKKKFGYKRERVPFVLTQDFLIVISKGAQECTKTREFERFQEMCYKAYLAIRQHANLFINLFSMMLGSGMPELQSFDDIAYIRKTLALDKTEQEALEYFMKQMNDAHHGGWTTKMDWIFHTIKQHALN
- Sequence (P27986 whole entry partner): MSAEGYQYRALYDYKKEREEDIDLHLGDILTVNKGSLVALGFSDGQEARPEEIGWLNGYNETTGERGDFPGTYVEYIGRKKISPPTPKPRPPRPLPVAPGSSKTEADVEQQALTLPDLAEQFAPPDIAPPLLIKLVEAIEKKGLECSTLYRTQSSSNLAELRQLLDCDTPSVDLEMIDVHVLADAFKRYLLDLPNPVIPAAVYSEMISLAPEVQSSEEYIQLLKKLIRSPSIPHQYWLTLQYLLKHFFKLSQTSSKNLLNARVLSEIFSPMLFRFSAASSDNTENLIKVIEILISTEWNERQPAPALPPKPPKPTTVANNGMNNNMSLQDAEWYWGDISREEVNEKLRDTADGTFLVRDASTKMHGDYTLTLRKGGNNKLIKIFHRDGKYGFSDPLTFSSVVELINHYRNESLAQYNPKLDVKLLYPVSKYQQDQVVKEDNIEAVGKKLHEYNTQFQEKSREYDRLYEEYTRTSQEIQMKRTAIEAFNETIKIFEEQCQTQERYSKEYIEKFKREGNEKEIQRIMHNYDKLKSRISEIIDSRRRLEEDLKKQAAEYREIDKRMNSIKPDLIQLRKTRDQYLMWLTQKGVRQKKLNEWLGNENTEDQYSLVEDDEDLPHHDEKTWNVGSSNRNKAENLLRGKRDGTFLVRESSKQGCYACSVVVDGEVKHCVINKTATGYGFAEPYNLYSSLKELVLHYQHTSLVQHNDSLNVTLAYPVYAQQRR
- experimental-protocol: In vitro PI3 kinase enzyme assay (PI3K ATP loss), alpha
- Assay type: biochemical
- reported-conditions: average if run more than once; read-out: ATP Loss (PBKα) IC50 μM (Avg)
Each record here notes measured IC50.
quantity: IC50 (µM)

[[record]]
compound = "O=S(=O)(Nc1cc(-c2ccc3ncc(NCCOc4ccccc4)nc3c2)cnc1Cl)c1ccc(F)cc1"
measurement_units = "µM"
endpoint_result = 0.0022

[[record]]
compound = "CN(C)c1cc(-c2ccc3ncccc3c2)cnc1Cl"
measurement_units = "µM"
endpoint_result = 1.12

[[record]]
compound = "COc1ccc(S(=O)(=O)Nc2cc(-c3ccc4ncccc4c3)cnc2Cl)cc1"
measurement_units = "µM"
endpoint_result = 0.0417

[[record]]
compound = "Oc1cc(-c2ccc3nccc(N4CCOCC4)c3c2)cnc1Cl"
measurement_units = "µM"
endpoint_result = 0.0258

[[record]]
compound = "CS(=O)(=O)Nc1cc(-c2ccc3nccc(N4CCOCC4)c3c2)cnc1Cl"
measurement_units = "µM"
endpoint_result = 0.0458

[[record]]
compound = "O=S(=O)(Nc1cc(-c2ccc3nccc(N4CCOCC4)c3c2)cnc1Cl)c1ccccc1Cl"
measurement_units = "µM"
endpoint_result = 0.0041

[[record]]
compound = "O=S(=O)(Nc1cc(-c2ccc3nccc(N4CCC(O)C4)c3c2)cnc1Cl)c1ccc(F)cc1 (centres unmarked)"
measurement_units = "µM"
endpoint_result = 0.0111

[[record]]
compound = "CC1CN(c2ccnc3ccc(-c4cnc(Cl)c(NS(=O)(=O)c5ccc(F)cc5)c4)cc23)CC(C)O1 (centres unmarked)"
measurement_units = "µM"
endpoint_result = 0.0041

[[record]]
compound = "O=S(=O)(Nc1cc(-c2cccc3cnncc23)cnc1Cl)c1ccc(F)cc1"
measurement_units = "µM"
endpoint_result = 1.9

[[record]]
compound = "O=S(=O)(Nc1cc(-c2ccc3ncc(N4CCCCC4)nc3c2)cnc1Cl)c1ccc(F)cc1"
measurement_units = "µM"
endpoint_result = 0.0027

[[record]]
compound = "O=S(=O)(Nc1cc(-c2ccc3ncc(N4CCNCC4)nc3c2)cnc1Cl)c1ccc(F)cc1"
measurement_units = "µM"
endpoint_result = 0.0049

[[record]]
compound = "O=S(=O)(Nc1cc(-c2ccnc3cccnc23)cnc1Cl)c1ccc(F)cc1"
measurement_units = "µM"
endpoint_result = 0.0875

[[record]]
compound = "CNc1ccc2cc(-c3cnc(Cl)c(NS(=O)(=O)c4ccc(OC)cc4)c3)ccc2n1"
measurement_units = "µM"
endpoint_result = 0.0954

[[record]]
compound = "CS(=O)(=O)Nc1cc(-c2ccc3nccc(Cl)c3c2)cnc1Cl"
measurement_units = "µM"
endpoint_result = 0.0142

[[record]]
compound = "CN(CC#N)c1cnc2ccc(-c3cnc(Cl)c(NS(=O)(=O)c4ccc(F)cc4)c3)cc2n1"
measurement_units = "µM"
endpoint_result = 0.0188

[[record]]
compound = "COc1cnc2ccc(-c3cnc(Cl)c(NS(C)(=O)=O)c3)cc2c1"
measurement_units = "µM"
endpoint_result = 0.0424

[[record]]
compound = "O=S(=O)(Nc1cc(-c2ccc3cnncc3c2)cnc1Cl)c1ccc(F)cc1"
measurement_units = "µM"
endpoint_result = 0.899

